- System: Muscarinic acetylcholine receptor M1
- method.description: M1 muscarinic receptor agonists, primary screen, CHO-M1 cells, Fluo-4 calcium, agonist mode (AID 626)
- conditions.used: Fluo-4 calcium fluorescence, at 10 µM, active compounds read high
The campaign covered roughly 64,000 compounds. About 1,900 (3%) were called active. This excerpt belongs to a sample that is enriched for actives.
This section presents molecules with their documented B-score values.
measurement.name: B-score

1. O=C(Nc1ccccc1-c1nnn(CC(=O)N2CCN(c3ccccc3)CC2)n1)c1cccs1 ... -0.15
2. CC(C)(C)c1cc(CN2CCN(CCC#N)CC2)cc(C(C)(C)C)c1O ... 25.1
3. O=C(NCCN1C(=O)C2C3C=CC(C3)C2C1=O)Nc1ccccn1 (stereo not given) ... 0.114
4. CC(C)C(NC(=O)OCc1ccccc1)C(=O)OCC(=O)N1C(C)CCCC1C (stereo not given) ... -0.582
5. N#Cc1nc(-c2ccc(OCc3ccccc3)cc2)oc1NCCCN1CCOCC1 ... 1.06
